List of GI50 values.
# Test system: MCF7
# assay_overview: NCI tumour cell line growth inhibition, 48 h
Activity calls are given as the source filed them. Cut-off read from the data, not from the text of the source: active = GI50 up to about 1.1 µM and inactive = higher.

molecule	GI50
CC1CCC2C(C(=O)O[C@H]3C4CCO[C@@H](OC5OC(CO)C(O)C(O)C5O)C4[C@@]4(CO)O[C@@H]34)=CO[C@@H](OC3OC(CO)C(O)C(O)C3O)C12 (some centres undefined)	> 10 µM (inactive)

Req: # query: GI50 of entry COc1cc(-c2nc3cc(F)ccc3s2)ccc1O
Resp: 4.61 µM (inactive)

====

# System: OVCAR-5
# assay_overview: NCI tumour cell line growth inhibition, 48 h
The source made the active and inactive calls. Rule as the data show it: active = GI50 up to about 1.1 µM and inactive = higher.
Your reply should match one of these outcome classes. yes for active, no for inactive

These recorded examples may help you get a feel for the data.
molecule	system	category_label
CC(C)=CC(O)C(C(O)CCC1(C)OCCO1)S(=O)(=O)c1ccccc1 (centres undefined)	OVCAR-5	no
CC1(Cl)CC(C)(/C=C/Cl)C(Cl)CC1Cl (centres undefined)	OVCAR-5	no
OCC1COc2cc(Cl)c(Cl)cc2O1 (centres undefined)	OVCAR-5	no
O=C1c2cccc3cccc(c23)C(=O)N1O	OVCAR-5	no
[O-][S+](CCCl)c1c2ccccc2nc2ccccc12 (centres undefined)	OVCAR-5	no

Req: Per the records of this test, what outcome belongs to C=C(C)C(=O)O[C@H]1CC2=CC(CC(C)=C[C@H]3OC(=O)C(=C)C13)OC2=O (some centres undefined) ?
Resp: no

Req: Proceed to COC(=O)c1s/c(=N\C(=S)N(C)C)n(-c2ccccc2)c1C(=O)OC
Resp: no

Req: Proceed to CC1(C)OC[C@@H]([C@H](O)C2C=CC(=O)S2)O1 (some centres undefined)
Resp: no

Req: Proceed to CC1(C)C(=O)C=CC2(C)C1CC(O)C1(C)C2CCC2(C)C(c3ccoc3)OC(=O)C3OC321 (centres undefined)
Resp: no

Req: Proceed to CCN(CC)CCNC(=O)c1cc2cc(NC(=O)c3cc4cc(NC(=O)c5cc6cc(N)ccc6[nH]5)ccc4[nH]3)ccc2[nH]1
Resp: no

Req: Proceed to N/C(=N\c1c([N+](=O)[O-])cnc2ccccc12)N1CCOCC1
Resp: no

Req: Proceed to CCn1c2ccccc2c2cc(/N=N\c3ccc(C#N)cc3)ccc21
Resp: no

Req: Proceed to CC1(C)C(C#N)C1C1=C(N2CCOCC2)[C@]2(C)C(OC(=O)c3ccccc3)CC[C@@H]2C1 (some centres undefined)
Resp: no

Req: Proceed to CC(=O)CC(=O)N(CCN(C(=O)CC(C)=O)c1ccccc1)c1ccccc1
Resp: no

Req: Proceed to COc1ccc(CC2C(=O)NC(C)C(=O)N(C)C3C(=O)N(C)C(Cc4ccc(O)c(c4)Oc4ccc(cc4)C3O)C(=O)NC(C)C(=O)NC(C)C(=O)N2C)cc1.COc1ccc(CC2C(=O)NC(C)C(=O)N(C)C3Cc4ccc(cc4)Oc4cc(ccc4O)CC(C(=O)NC(C)C(=O)NC(C)C(=O)N2C)N(C)C3=O)cc1 (centres undefined)
Resp: yes

Req: Proceed to N#CC1C(=O)NC(=O)C(C#N)C1c1ccc(Cl)c(Cl)c1 (centres undefined)
Resp: no

Req: Proceed to O=C(Nc1ccccc1)O/N=C1/CCCC/C1=C\c1ccccc1
Resp: no

Req: Proceed to CCOC(=O)Cc1c(C)c2ccc(OC(C)=O)c(OC(C)=O)c2oc1=O
Resp: no

Req: Proceed to CC(=O)Oc1ccc(Nn2c3ccccc3c3ccccc32)c(C)c1
Resp: no

Entry source: ChEMBL document CHEMBL1201862
